Tested on: LOX IMVI melanoma
methodSummary: NCI tumour cell line growth inhibition, 48 h
Response field class: enum, chosen by comparing TGI against lo: < 7 µM; med: ≥ 7 µM and < 30 µM; hi: ≥ 30 µM

Hey, which category is `CN1C(=O)CNC(=O)[C@H](NC(=O)c2nc3ccccc3cc2O)CSSC[C@H]1C(=O)NCCc1nc2ccccc2cc1O` in, do you know?
lo

Next record, please: `CC1=CC(C)(C)N=C2SC(c3ccc(Cl)cc3)=NN12`
hi

Next record, please: `COC(=O)NCCc1[nH]nc2c1C(=O)C=C(Nc1ccccc1)C2=O`
hi

Next record, please: `COc1ccc(Cc2nc3cc(C(F)(F)F)ccc3n2CCCN(C)C)cc1`
hi

Next record, please: CC1C(c2ccc3c(c2)OCO3)c2cc3c(cc2OC1N1CCCC1)OCO3 (centres undefined)
hi

Next record, please: `CS(=O)(=O)CCNCc1ccc(-c2ccc3ncnc(Nc4ccc(OCc5cccc(C(F)(F)F)c5)cc4)c3c2)o1`
med

Next record, please: `CC(=O)O[C@@H]1CO[C@H]2O[C@H]3[C@@H](C(C=O)=C[C@H](O)[C@@H]4C5=C(C(C)C)CC[C@]5(C)CC[C@@]34C)[C@@]2(O)C1=O`
lo

Next record, please: `CN(C)CCNc1ccc([N+](=O)[O-])c2nc3ccccc3c(N)c12`
lo

Next record, please: `c1ccc(N=C2SC(=NNc3ccccc3)SC2=Nc2ccccc2)cc1`
hi

Next record, please: `N#Cc1ccccc1C#C/C=C\C#Cc1ccc(OCCCNC(=O)c2cc3ccccc3[nH]2)cc1`
med

Next record, please: `C(=C1c2ccccc2-c2ccccc21)c1ccccn1`
med

Next record, please: `CCSC1=N/C(=C\c2ccccc2O)C(Nc2ccc(C)cc2)=N1`
hi

Next record, please: `CCC[CH2][Sn]([CH2]CCC)([O]C(=O)c1cccc(F)c1)[O]C(=O)c1cccc(F)c1`
lo

Next record, please: CCC1CC2CN3CCc4c([nH]c5c(-c6c(OC)ccc7c8c([nH]c67)[C@]6(C(=O)OC)CC7CC(CC)C6N(CC8)C7)c(O)ccc45)[C@](C(=O)OC)(C2)C13 (some centres undefined)
med

Next record, please: CC(NS(C)(=O)=O)c1ccccc1 (centres undefined)
hi

Next record, please: Nc1nc(Cl)cc(NCC2(CO)CCC(Cc3ccccc3)C2)n1 (centres undefined)
hi

Next record, please: `O=C(O)CSc1cc(-c2ccccc2)nc2ccccc12`
hi

---

Tested on: NCI-H23 lung
methodSummary: NCI tumour cell line growth inhibition, 48 h
readoutType: TGI

// lookup TGI for `CCOC(=O)/N=C(\N)SCc1ccccc1`
> 100 µM

Next record, please: Cc1nn(C(=O)c2ccc(Cl)cc2)c2c1C(c1ccc([N+](=O)[O-])cc1)SC(N)=N2 (centres undefined)
> 10 µM

Next record, please: CC(=O)OC1CC2CCC1(C)C2(C)C (centres undefined)
> 100 µM

Next record, please: `COc1cc(CSc2nc3ccc(C)cc3c(=O)n2Cc2ccccc2)cc(OC)c1OC`
> 100 µM

Next record, please: COc1ccc2c3c1OC1C(=O)C=CC4(O)C(C2)NCC[C@@]314 (some centres undefined)
5.64 µM

Next record, please: COc1ccc(C(c2ccc(C(C)C)cc(=O)c2O)c2c(O)cc3oc(-c4ccccc4)cc(=O)c3c2O)cc1 (centres undefined)
55.7 µM

Next record, please: NC(=O)CCC(NCc1c2ccccc2[n+]([O-])c2ccccc12)C(=O)O (centres undefined)
> 100 µM

Next record, please: `O=C(c1cc(Cl)cc(Cl)c1)N(C(=S)OC12CC3CC(CC(C3)C1)C2)c1ccccc1`
> 100 µM

Next record, please: `COC(=O)NCCc1[nH]nc2c1C(=O)C=C(Nc1ccccc1)C2=O`
31.4 µM

Next record, please: `COc1cc(OC)c2c(=O)c(O)c(-c3ccc(OC)c(OC)c3)oc2c1`
> 100 µM

Next record, please: `N#Cc1ccccc1C#C/C=C\C#Cc1ccc(OCCCNC(=O)c2cc3ccccc3[nH]2)cc1`
98.2 µM

Next record, please: CCC1CC2CN3CCc4c([nH]c5c(-c6c(OC)ccc7c8c([nH]c67)[C@]6(C(=O)OC)CC7CC(CC)C6N(CC8)C7)c(O)ccc45)[C@](C(=O)OC)(C2)C13 (some centres undefined)
34.4 µM

Next record, please: `CN1CCN(c2ccc3c4c(cccc24)C(=O)N(CCN2CCN(CCCN4CCN(CCN5C(=O)c6cccc7c(N8CCN(C)CC8)ccc(c67)C5=O)CC4)CC2)C3=O)CC1`
13.8 µM

Next record, please: O=C1c2ccccc2CC12Cc1cc3c(cc1C2=O)CCC3 (centres undefined)
> 100 µM

Next record, please: `O=C(CSc1nc(=O)[nH]c2nc[nH]c12)Nc1ccccc1`
> 100 µM

Next record, please: `CC(=O)Nc1ccc(CNc2cc(=O)[nH]c(=O)[nH]2)cc1`
> 100 µM

Next record, please: C=CC1CC12C(=O)C1OC2(C)C2C(=O)c3c(ccc4c3ccc3ccccc34)C(=O)C12 (centres undefined)
> 100 µM

Next record, please: c1ccc(C2SCC3=Nc4ccccc4CN32)cc1 (centres undefined)
62.3 µM

Next record, please: COP(C)(=O)/C(Cc1ccccc1)=N\O (centres undefined)
> 100 µM

Next record, please: CC1(O)CC2C(CC1SCCO)C2(C)C (centres undefined)
> 100 µM

Next record, please: `CC(=O)c1ccc(Oc2ccc(/C(C)=N\N=C(N)N)cc2)cc1`
12.8 µM

Next record, please: `Cc1cc(NS(=O)(=O)c2ccc(NC(=O)c3cccc4c(N)c5ccccc5nc34)cc2)no1`
52.2 µM

Next record, please: `C=C(C=O)c1c2c(nc3ccccc13)C(=O)c1ccccc1C2=O`
2.85 µM

Next record, please: `Cc1ccc(/C=C/C(=O)c2c([O-])on[n+]2-c2ccccc2)cc1`
17.5 µM

Next record, please: CCC(Sc1nnc2c3ccccc3n(CC)c2n1)C(=O)Nc1ccccc1OC (centres undefined)
> 100 µM

Next record, please: `COc1cccc(/C=N\Nc2ccc([N+](=O)[O-])cn2)c1O`
14.9 µM

Next record, please: `CCOP(=O)(Nc1ccc(-c2ccccc2)cc1)OCC`
> 100 µM

Next record, please: `CN(C)CCNc1ccc([N+](=O)[O-])c2nc3ccccc3c(N)c12`
6.55 µM

Next record, please: `O=P(O)(O)C(CSc1ccccc1)P(=O)(O)O`
> 100 µM

Next record, please: O=C1c2cc3ccccc3cc2C2(c3ccc(Cl)cc3)N[C@H]3CCCC[C@@H]3N12 (some centres undefined)
31.3 µM

Next record, please: `N#CCC(=O)Nn1c(CC#N)nnc1Cc1ccccc1`
> 100 µM

Next record, please: `O=C(CCC(=O)Nc1ccc(Cl)cc1)CC(=O)c1ccc(F)cc1`
> 100 µM

Next record, please: `CCOC(=O)CC1(O)C=CC(=O)C=C1`
1.75 mg/L

Next record, please: CC1C(c2ccc3c(c2)OCO3)c2cc3c(cc2OC1N1CCCC1)OCO3 (centres undefined)
> 100 µM

Next record, please: `N#Cc1[nH]c(=O)n(-c2ccc(Cl)cc2)c1N`
> 10 µM

Next record, please: O=C(O)C1C2CC3C(OC(=O)C31)C2Br (centres undefined)
> 100 µM

Next record, please: `CCOP(=O)(/C=C\n1cnc2c(=O)n(C(C)=O)c(N)nc21)OCC`
> 100 µM

Next record, please: `Cc1cccc(Nc2cn(COCc3ccccc3)c(=O)[nH]c2=O)c1`
> 100 µM

Next record, please: `Cn1c(CCC#N)nc2ccc(Br)cc2c1=O`
> 100 µM

Next record, please: `CCCNC(=S)N/N=C/c1cccc(C)n1`
> 100 µM

Next record, please: COC(=O)c1ccccc1NC(=O)/C(=N\NC(C)(C)C)C(C#N)c1nc(-c2ccc([N+](=O)[O-])cc2)cs1 (centres undefined)
> 100 µM

Next record, please: CC(=O)N1CC2Nc3ccccc3C2CC1CO (centres undefined)
> 100 µM

Next record, please: `CCSC1=N/C(=C\c2ccccc2O)C(Nc2ccc(C)cc2)=N1`
> 100 µM

Next record, please: `CC(=O)Nc1ncc(Sc2ccccc2C(=O)O)s1`
> 100 µM

---

Test system: SN12C renal
methodSummary: NCI tumour cell line growth inhibition, 48 h
readoutType: TGI

// lookup TGI for `Cc1nc2c(o1)C(=O)c1ccccc1/C2=N/c1ccccn1`
64.1 µM

Next record, please: CCN(CC)CCOc1ccc(/C=C2\CC3C4CCC5=CC(=O)CC[C@]5(C)C4CC[C@]3(C)C2=O)cc1OC (stereo partly drawn)
7.06 µM

Next record, please: `N=C(N)SCCc1cn2ccccc2n1`
> 100 µM

Next record, please: `CCOP(=O)(/C=C\n1cnc2c(=O)n(C(C)=O)c(N)nc21)OCC`
> 100 µM

Next record, please: Cc1ccc(C(=O)C(C)N)cc1 (stereo not drawn)
> 100 µM

Next record, please: `COc1cc2c(c(OC)c1OC)-c1[nH]ncc1CC2`
> 100 µM

Next record, please: `ClCCN(CCCl)c1ccc(-n2cnc3c(Cl)ncnc32)cc1`
10.2 µM

Next record, please: COc1ccc(C(O)CNC(=O)c2ccccc2)cc1 (stereo not drawn)
> 100 µM

Next record, please: `O=P(O)(O)C(CSc1ccccc1)P(=O)(O)O`
> 100 µM

Next record, please: `CC(C)(C)[Si](C)(C)OCCCC#CCO`
> 100 µM

Next record, please: `N#Cc1c(-c2ccccc2)/c(=C\O)c(=O)n2c1nc1ccccc12`
> 100 µM

Next record, please: `O=Cc1ccc(-c2ccc(-c3ccc(C=O)s3)o2)s1`
> 100 µM

Next record, please: `O=c1[nH]c2ccc(CC(=S)N3CCOCC3)cc2s1`
> 100 µM

Next record, please: `CC(C)C(=O)N[C@@H](C)C(=O)N(Cc1ccc2ccccc2c1)N=O`
> 100 µM

Next record, please: `COc1ccc(O)c(C(=O)c2ccc(C(=O)O[C@@H]3CCCNC[C@H]3NC(=O)c3ccncc3)cc2)c1F`
> 25 µM

Next record, please: `CCCCCCCCCCCCCCCc1cc(O)ccc1N`
> 100 µM

Next record, please: `COc1ccc2[nH]cc(-c3nc(-c4cn(C)c5ccncc45)cs3)c2c1`
3.08 µM

Next record, please: `CN(C)CCn1c2ccccc2c2nc3cc4ccccc4cc3nc21`
17.8 µM

Next record, please: `CN1CCN(c2ccc3c4c(cccc24)C(=O)N(CCN2CCN(CCCN4CCN(CCN5C(=O)c6cccc7c(N8CCN(C)CC8)ccc(c67)C5=O)CC4)CC2)C3=O)CC1`
11.2 µM

Next record, please: `CN1C(c2ccccc2)=CC(=O)C(O)=C(c2ccccc2)S1(=O)=O`
> 100 µM

Next record, please: NC1CC(=O)c2csc(Br)c21 (stereo not drawn)
> 44.3 µM

Next record, please: `CCCN(CCC)c1ccc(CO)c(C)c1`
> 100 µM

Next record, please: `O=C(Nc1ccc(Br)cc1)Nc1n[nH]c2ccccc12`
> 100 µM
